Target protein (sequence): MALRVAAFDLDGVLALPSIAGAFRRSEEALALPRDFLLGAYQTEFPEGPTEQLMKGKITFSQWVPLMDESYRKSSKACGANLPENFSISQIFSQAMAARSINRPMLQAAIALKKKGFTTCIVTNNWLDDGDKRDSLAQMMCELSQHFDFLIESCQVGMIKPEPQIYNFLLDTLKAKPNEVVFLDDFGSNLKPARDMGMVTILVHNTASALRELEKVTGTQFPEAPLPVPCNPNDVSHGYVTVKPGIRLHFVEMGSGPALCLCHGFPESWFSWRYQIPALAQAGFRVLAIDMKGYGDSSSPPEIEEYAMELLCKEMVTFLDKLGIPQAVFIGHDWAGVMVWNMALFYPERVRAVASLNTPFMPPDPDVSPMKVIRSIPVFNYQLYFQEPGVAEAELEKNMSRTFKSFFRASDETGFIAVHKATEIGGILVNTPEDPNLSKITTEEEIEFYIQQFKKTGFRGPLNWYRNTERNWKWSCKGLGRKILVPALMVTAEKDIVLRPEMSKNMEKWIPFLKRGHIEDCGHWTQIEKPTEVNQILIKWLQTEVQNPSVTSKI
OBSERVATION TYPE: IC50 (nM)

COMPOUND SMILES: O=C(Nc1ccc(-c2cccnc2)cc1)C1CCN(S(=O)(=O)c2ccccc2Cl)CC1
OBSERVED VALUE: 127

A. O=C(Nc1ccc(-c2nccc3ccccc23)cc1)C1CCN(S(=O)(=O)c2ccccc2Cl)CC1
B. O=C(Nc1ccc(-c2ccccn2)cc1)C1CCN(S(=O)(=O)c2ccccc2Cl)CC1
[ask] Between the two listed entries A and B , which has its IC50 at the higher number? # reply format: chosen label
[reply] A

a. Cc1cc(-c2ccc(NC(=O)C3CCN(S(=O)(=O)c4ccccc4Cl)CC3)cc2)ccn1
b. O=C(Nc1ccc(-c2cccc3cnccc23)cc1)C1CCN(S(=O)(=O)c2ccccc2Cl)CC1
c. O=C(Nc1ccc(-c2ccc3ccncc3c2)cc1)C1CCN(S(=O)(=O)c2ccccc2Cl)CC1
[ask] Please list these in order of increasing IC50. Thank you! # respond with the labels, arranged in the requested order
[reply] b, c, a
(b: 30.6 nM, c: 107 nM, a: 259 nM)
